# TESTED TARGET: nsp5 (Severe acute respiratory syndrome coronavirus 2, UniProt P0DTD1)
# PROTOCOL DESCRIPTION: biochemical
# Format: biochemical
# TEST CONTEXT: FRET-based assay, 10 nM nsp5, 20 µM substrate, 2 mM DTT; mean ± SEM; read-out: IC50
pIC50: −log10 of the molar value. Where a SMILES comes first, the peptide text is derived from it. [ ]: non-standard residue; d: D form. The star is where a group is joined. Nle = CCCC[C@H](N)C(=O)O; Cbz = O=C(OCc1ccccc1)*; CH2F = FC*
Classification field: 1 = pIC50 at or over 5; -1 = pIC50 under 5.

Reference set, count: 4
CCC(C)C(NC(=O)OCc1ccccc1)C(=O)NC(CCC(=O)OC)C(=O)NC(C(=O)NC(CC(=O)OC)C(=O)CF)C(C)O (centres unmarked) [Z-IETD-FMK] (Cbz-IE(OMe)TD(OMe)-CH2F; configuration not given here)    1
Br.CCCc1cc(-c2nc(-c3ccc(C)cc3)cs2)ccn1 [Fatostatin HBr]    -1
CCCC[C@@H](C=O)NC(=O)[C@H](CC(C)C)NC(=O)[C@H](CC(C)C)NC(C)=O [Calpain Inhibitor I] (Ac-Leu-Leu-[Nle]-aldehyde)    1
COC(=O)CC(NC(=O)C(CC(C)C)NC(=O)C(NC(=O)C(C)NC(=O)C(CO)NC(=O)C(C)NC(=O)OCc1ccccc1)C(C)C)C(=O)CF (centres unmarked) [Z-ASAVLD-FMK] (Cbz-ASAVLD(OMe)-CH2F; configuration not given here)    1

Next item in the queue.
Q: Test whether the compound COC(=O)CC(NC(=O)C(CC(C)C)NC(=O)C(NC(=O)C(C)NC(=O)C(CO)NC(=O)OCc1ccccc1)C(C)C)C(=O)CF (centres unmarked) [Z-SAVLD-FMK] (Cbz-SAVLD(OMe)-CH2F; configuration not given here) records pIC50 of 5 or higher.
A: 1

* * *

# TESTED TARGET: UniProt:P00734
METRIC NAME: pIC50
pIC50 (log units): -log10 of the concentration in mol/L.

pIC50 for O=C1O/C(=C/Br)CCC1c1cccc2ccccc12 (stereo not shown) is 6.40

* * *

Each entry below lists one item and its recorded pIC50 value.
# TESTED TARGET: nsp5 (Severe acute respiratory syndrome coronavirus 2, UniProt P0DTD1)
# PROTOCOL DESCRIPTION: biochemical
# Type: biochemical
Where a SMILES comes first, the peptide text is derived from it. The star is where a group is joined. Cbz = O=C(OCc1ccccc1)*; CH2F = FC*
// scale note: pIC50 = -log10(conc_M); give the bare number

Lab note: O=C1O/C(=C/Br)CCC1c1cccc2ccccc12 (stereo not drawn) gave pIC50 of 5.47

For this molecule ( COC(=O)CCC(NC(=O)C(CC(=O)OC)NC(=O)OCc1ccccc1)C(=O)NC(C(=O)NC(CC(=O)OC)C(=O)CF)C(C)C (stereo not drawn) ), measured pIC50 is 6.64

Note to self: pIC50 recorded for COC(=O)CC(NC(=O)C(C)NC(=O)C(NC(=O)OCc1ccccc1)C(C)C)C(=O)CF (stereo not drawn) [Z-VAD-FMK, Z-VAD(OMe)-FMK] (Cbz-Val-Ala-Asp(OMe)-CH2F; configuration not given here) was 6.80

* * *

List of Hill coefficient (nH) values.
# TESTED TARGET: nsp5 (Severe acute respiratory syndrome coronavirus 2)
# PROTOCOL DESCRIPTION: biochemical
# Type: biochemical
# TEST CONTEXT: FRET-based assay; mean ± SEM
Where a SMILES comes first, the peptide text is derived from it. [ ]: non-standard residue; d: D form. The star is where a group is joined. Nle = CCCC[C@H](N)C(=O)O; Cbz = O=C(OCc1ccccc1)*; CH2F = FC*
Write the number on its own, no unit after it.

CCC(C)C(NC(=O)OCc1ccccc1)C(=O)NC(CCC(=O)OC)C(=O)NC(C(=O)NC(CC(=O)OC)C(=O)CF)C(C)O (stereo not drawn) [Z-IETD-FMK] (Cbz-IE(OMe)TD(OMe)-CH2F; configuration not given here)    -1.4
O=C1O/C(=C/Br)CCC1c1cccc2ccccc12 (stereo not drawn) [Bromoenol lactone]    -2.6
Br.CCCc1cc(-c2nc(-c3ccc(C)cc3)cs2)ccn1 [Fatostatin HBr]    -0.3
COC(=O)CC(NC(=O)C(C)NC(=O)C(NC(=O)OCc1ccccc1)C(C)C)C(=O)CF (stereo not drawn) [Z-VAD-FMK, Z-VAD(OMe)-FMK] (Cbz-Val-Ala-Asp(OMe)-CH2F; configuration not given here)    -1.5
CCCC[C@@H](C=O)NC(=O)[C@H](CC(C)C)NC(=O)[C@H](CC(C)C)NC(C)=O [Calpain Inhibitor I] (Ac-Leu-Leu-[Nle]-aldehyde)    -2.0

Next, consider the following molecule.
So, COC(=O)CCC(NC(=O)C(CC(=O)OC)NC(=O)OCc1ccccc1)C(=O)NC(C(=O)NC(CC(=O)OC)C(=O)CF)C(C)C (stereo not drawn) [Z-DEVD-FMK] ? Its Hill coefficient (nH) was -0.7

* * *

# Test system: SARS-CoV-2
# PROTOCOL DESCRIPTION: viral infectivity assay in Vero E6 cells
# Format: cell-based
# TEST CONTEXT: Severe acute respiratory syndrome coronavirus 2, Vero C1008; read-out: EC50 viral infection
Where a SMILES comes first, the peptide text is derived from it. The star is where a group is joined. Cbz = O=C(OCc1ccccc1)*; CH2F = FC*
METRIC NAME: EC50 (µM)
Report the value in µM with no unit label.

EC50 reported for this compound COC(=O)CC(NC(=O)C(CC(C)C)NC(=O)C(NC(=O)C(C)NC(=O)OCc1ccccc1)C(C)C)C(=O)CF (stereo not shown) [Z-AVLD-FMK] (Cbz-AVLD(OMe)-CH2F; configuration not given here) : 66

Data provenance: paper PMC8286836
